Origin of the recorded values: PubChem BioAssay (NCI)

System: 786-0 renal
assayComment: NCI-60 one-dose screen, 48 h (100 = growth as untreated, 0 = no growth, -100 = all killed)
runConditions: 10 µM unless noted
About 83,000 compounds went through this panel and 20% of them were active in at least one assay; those are over-represented in the sample as a whole. Calls of active or inactive are those of the source. How the source made its calls: active means growth percent below 10; inactive means the rest.
quantityMeasured: growth

Recorded results for 10 compounds are shown here.
{"compound": "Cc1cc2c(O)c(-c3cccc(Cl)c3)c3sc(=O)oc3c2cc1C", "quantityMeasured": "growth", "measValue": "78.8% (inactive)"}
{"compound": "CCOC(=O)CSc1ncnc2c1c(-c1ccccc1)c(-c1ccccc1)n2-c1ccc(C)cc1", "quantityMeasured": "growth", "measValue": "80.9% (inactive)"}
{"compound": "COc1ccc(/C=N/NC(=O)CCN2c3ccccc3Sc3ccccc32)cc1", "quantityMeasured": "growth", "measValue": "91.5% (inactive)"}
{"compound": "CCc1n(Cc2ccc3ccccc3c2)cc[n+]1Cc1ccc2ccccc2c1", "quantityMeasured": "growth", "measValue": "35.7% (inactive)"}
{"compound": "CN1CCN(c2ccc(C(=O)Nc3cccc(C#Cc4cccc5[nH]nc(N)c45)c3)cc2C(F)(F)F)CC1", "quantityMeasured": "growth", "measValue": "-70.4% (active)"}
{"compound": "CNC(=O)c1cc(Oc2ccc3nc(NC(C)=O)sc3c2)ccn1", "quantityMeasured": "growth", "measValue": "94.6% (inactive)"}
{"compound": "CCN1CCN(c2cc(C(=O)Nc3nc(-c4cc(OC)c(OC)c(OC)c4)cs3)cc(C(F)(F)F)c2)CC1", "quantityMeasured": "growth", "measValue": "49.1% (inactive)"}
{"compound": "O=Nc1c(-c2c(O)[nH]c3ncccc23)[nH]c2ccccc12", "quantityMeasured": "growth", "measValue": "43.3% (inactive)"}
{"compound": "COc1cnc2c(c1)C(=O)c1c-2n(CCCNCCO)c(=O)c2ccncc12", "quantityMeasured": "growth", "measValue": "12.3% (inactive)"}
{"compound": "O=C(Nc1cccc([N+](=O)[O-])c1)c1cc2ccccc2cc1O", "quantityMeasured": "growth", "measValue": "8.07% (active)"}

Endpoint output: growth of CCCC(O)Cn1ncc(C(=O)OCC)c1NC(=O)NCc1ccccc1F (stereo not given) . Value?
95.6% (inactive)

I am curious: what growth value has been reported for Cc1ccccc1Cn1cnc2ccc(-c3cc(NC(=O)c4ccc(NC5CCN(C)CC5)cc4)n[nH]3)cc21 ?
85% (inactive)

Find the recorded growth belonging to CC1(C)CC[C@]2(C(=O)O)CC[C@]3(C)C(=CC[C@@H]4[C@@]5(C)C/C(=C/O)C(=O)C(C)(C)[C@@H]5CC[C@]43C)[C@@H]2C1 and report it.
84.3% (inactive)

Reported growth, compound CC(C)CCNC(=O)Cn1cccc(NC(=O)OCc2ccccc2)c1=O : ____
111% (inactive)

I have this compound here, CCN(CC)CCOc1ccc(-c2c(-c3ccccc3)c(=O)oc3ccccc23)cc1 , and I need its recorded growth.
85% (inactive)
